# testedOn: furin, P09958
# Sequence (P09958 whole entry): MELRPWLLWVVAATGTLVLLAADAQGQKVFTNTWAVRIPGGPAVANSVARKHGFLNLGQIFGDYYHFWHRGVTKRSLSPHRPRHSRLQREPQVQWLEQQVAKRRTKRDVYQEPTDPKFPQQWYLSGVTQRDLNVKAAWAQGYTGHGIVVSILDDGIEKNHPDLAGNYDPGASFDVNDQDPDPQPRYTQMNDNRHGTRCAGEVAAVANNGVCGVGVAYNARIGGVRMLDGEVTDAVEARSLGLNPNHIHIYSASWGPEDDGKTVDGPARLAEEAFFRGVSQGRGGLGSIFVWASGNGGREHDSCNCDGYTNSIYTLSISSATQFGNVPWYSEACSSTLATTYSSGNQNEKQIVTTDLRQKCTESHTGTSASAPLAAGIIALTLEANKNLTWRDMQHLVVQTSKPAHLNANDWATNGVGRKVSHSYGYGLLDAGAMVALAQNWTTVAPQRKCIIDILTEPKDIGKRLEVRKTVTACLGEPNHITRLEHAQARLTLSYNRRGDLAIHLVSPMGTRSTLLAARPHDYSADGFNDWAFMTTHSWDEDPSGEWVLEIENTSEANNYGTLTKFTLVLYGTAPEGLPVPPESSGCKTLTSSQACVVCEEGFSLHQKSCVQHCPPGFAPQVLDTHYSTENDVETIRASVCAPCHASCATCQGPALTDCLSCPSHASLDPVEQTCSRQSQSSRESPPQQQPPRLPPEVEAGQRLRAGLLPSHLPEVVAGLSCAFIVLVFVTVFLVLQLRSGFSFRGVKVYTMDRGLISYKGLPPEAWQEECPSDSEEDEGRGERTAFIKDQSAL
# methodDescription: furin cleavage Z-score vs untreated control; higher = more cleavage, active = 3.5 or more, inactive = 1 or less, 8 variable residues between constant flanks;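 note: purified furin at 1:10 enzyme:substrate in 50 mM HEPES pH 7.5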
# appliedConditions: 30 min
This is one part of the list. How many sequences the whole screen found active is unknown.
Listing: furin cleavage Z-score of selected sequences

Here's what some known entries look like.
- residueString: "CAATQLRRHIAGNASASA [HC288]"
  furin cleavage Z-score: 1.16
- residueString: "CARHKRMCQGAGNASASA [FS-2335]"
  furin cleavage Z-score: 3.08

Item CASTPCSIHLAGNASASA [HC2524] : provide furin cleavage Z-score
1.12

Item CARNKRKVFSAGNASASA [FS-2159] : provide furin cleavage Z-score
3.14

Item CAEVVTRTWVAGNASASA [HC150] : provide furin cleavage Z-score
1.23

Data origin: the supplement of paper PMC3545927
